Assay: Clearance in Sprague-Dawley rat at 2.9 mg/kg, po
Format: ADME, organism-based
Settings: in vivo
Measured Quantity: CL/F (L/h/kg)
Form entry: value (L/h/kg) — number only.

Returns the measured CL/F for the input compound. Input: Cc1nc2[nH]cnc2cc1-n1c2ccc(F)cc2c2[nH]ncc21
1.03

* * *

Assay: AUC in Sprague-Dawley rat at 2.9 mg/kg, po
Assay type: ADME, organism-based
Settings: in vivo
Measured Quantity: AUC

Returns the measured AUC for the input molecule. Input: Cc1nc2[nH]cnc2cc1-n1c2ccc(F)cc2c2[nH]ncc21
2240 ng·h/mL

* * *

Experiment: Half life in Sprague-Dawley rat at 2.9 mg/kg, po
Type: ADME, organism-based
Conditions: in vivo
Measured Quantity: half-life (h)
Form entry: value (h) — number only.

Returns the measured half-life for the input compound. Input: Cc1nc2[nH]cnc2cc1-n1c2ccc(F)cc2c2[nH]ncc21
6

* * *

IC50 values, listed per item
Target: Cytochrome P450 1A2 (Homo sapiens, UniProt P05177)
Sequence (P05177 whole entry): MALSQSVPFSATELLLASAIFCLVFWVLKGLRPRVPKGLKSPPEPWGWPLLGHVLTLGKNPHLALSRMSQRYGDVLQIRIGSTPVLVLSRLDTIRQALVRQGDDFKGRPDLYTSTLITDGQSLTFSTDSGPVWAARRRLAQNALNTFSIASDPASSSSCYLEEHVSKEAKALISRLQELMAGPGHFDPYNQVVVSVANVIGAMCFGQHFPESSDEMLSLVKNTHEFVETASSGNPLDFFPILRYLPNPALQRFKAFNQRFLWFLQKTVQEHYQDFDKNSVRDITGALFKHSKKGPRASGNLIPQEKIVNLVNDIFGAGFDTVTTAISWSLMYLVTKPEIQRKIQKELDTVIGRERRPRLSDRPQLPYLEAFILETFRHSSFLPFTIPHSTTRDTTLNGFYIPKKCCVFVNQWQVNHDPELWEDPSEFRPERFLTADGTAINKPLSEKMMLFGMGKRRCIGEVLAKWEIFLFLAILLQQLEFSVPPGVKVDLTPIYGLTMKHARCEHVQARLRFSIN
Numeric answer plus unit only.

Fc1cc2c3[nH]ncc3n(-c3cccnc3)c2cc1F
50.1 nM

Then this compound:
Returns the measured IC50 for the input compound. Input: Cc1nc2[nH]cnc2cc1-n1c2ccc(F)cc2c2[nH]ncc21
3160 nM

Every entry's value here was drawn from ChEMBL document CHEMBL3797041.
